Values were extracted from patent US20220162261A1.

This listing pairs binders with measured pIC50.
# testedSystem: T1, α4β1 (R&D Systems #5668-A4) (UniProt P13612 34-970; P05556 21-728, limits assumed)
# T1 construct: bought; also called soluble α4β1
# assaySummary: competition ELISA vs VCAM-1
Bridge positions count the residues as written; N and C are the ends. Square brackets hold non-standard residues; d marks the D form. NMeR = CN[C@@H](CCCNC(=N)N)C(=O)O; β3hE = N[C@@H](CCC(=O)O)CC(=O)O; Pen = CC(C)(S)[C@H](N)C(=O)O
API: returns pIC50 as number; meaning -log10 of concentration in mol/L.

Ac-CRSDTLCGEK-NH2 (disulfide 1-7 (inferred); also: dimer linked by PEG25, attachment not given here, also called peptide 197) [SEQ ID NO: 197]
6.02
Ac-[Pen][NMeR]SDTL[Pen]W[β3hE][dK]-NH2 (disulfide 1-7; not fully specified (residue 10); printed as (Ac Pen N-Me-R S D T L Pen W b-h-E k NH2)2 DIG, disulfide Pen-Pen; also: dimer, two subunits joined by DIG linker, also called peptide 213; Peptide XX) [SEQ ID NO: 213]
6.27

Continue with the binder presented below.
Noted for Ac-CRSDTLCGEK-NH2 (disulfide 1-7 (inferred), also called peptide 196) [SEQ ID NO: 196] : its pIC50 reads 5.32
